experimental.system: biotinylated recombinant human CLL-1 extracellular domain protein, isoform with glutamine at amino acid position 244 (human) (UniProt Q5QGZ9)
Sequence (Q5QGZ9 65-265): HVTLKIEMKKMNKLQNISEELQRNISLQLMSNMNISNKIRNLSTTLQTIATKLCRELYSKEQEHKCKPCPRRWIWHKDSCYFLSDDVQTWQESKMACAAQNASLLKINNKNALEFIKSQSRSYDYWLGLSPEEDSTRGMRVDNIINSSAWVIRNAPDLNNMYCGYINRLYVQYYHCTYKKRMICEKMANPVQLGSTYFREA
protocol.summary: Blitz (CLL-1-Q244)

| binder | Kd, nM |
| --- | --- |
| Anti-CLL-1 Binder Clone 12 (scFv, not shown: small tags and cut ends) scFv: DIQMTQSPSSLSASVGDRVTITCQASQDISNYLNWYQQKPGKAPKLLIYDASNLETGVPSRFSGSGSGTDFTLTISSPQPEDLATYYCQQANSFPFTFGQGTKVEIKGGGGSGGGGSGGGGSQVQLVQSGAEVKKPGSSVKVSCKASGYSFTRNDITWVRQANGRGLEWLGRLNPNNGDTVYAEVFQGRVAMTRDTSTDTAYMELASLKSDDTAVYFCARGFWSFDVWGQGTMVTVSS | 45 |
| Anti-CLL-1 Binder Clone 2 (scFv, not shown: small tags and cut ends) scFv: QSVLTQPLSVSVALGQTARITCGGNNIGSKNVHWYQQKAGQAPVLVIQRDSNRPSGIPERFSGSNSGNTATLTISRAQAGDEADYFCQVWDSNTYVFGTGTKLTVLGGGGSGGGGSGGGGSEVQLVESGGGLVKPGGSLRLSCAASGFTFSDYYMSWIRQAPGKGLEWVSYISSSGSTIYYADSVKGRFTISRDNAKNSLYLQMNSLRDEDTAVYYCARQSAEIVGAFDHWGQGTMVTVSS | 70 |
| Anti-CLL-1 Binder Clone 20 (VHH, not shown: small tags and cut ends) VHH: QVQLVQSGGGLVQPGGSLRLSCAASDFSFSYYEMSWVRQAPGKGLEWVSTISGSGDSTYYADSVKGRFTISRDNTKNTLYLQMNTLRAEDTATYYCMTDGETWGTHRYTVYWGQGALVTVSS | 33 |
| Anti-CLL-1 Binder Clone 38 (scFv, not shown: small tags and cut ends) scFv: DIQMTQSPSTLSASVGDRVTITCRASQSISSWLAWYQQKPGKAPKLLIYTASSLQSGVPSRFSGSESGTDFTLTISSLQPEDFATYYCQQSYSTPLTFGGGTKVDIKGGGGSGGGGSGGGGSQVQLVQSGAEVKKPGASVKVSCKASGYTFTGYYMHWVRQAPGQGLEWMGWINPNSGGTNYAQKFQGRVTLTRDTSITTAYLELTSLTSDDTAVYYCARGDTGDFFDHWGQGTLVTVSS | 14 |
| Anti-CLL-1 Binder Clone 11 (scFv, not shown: small tags and cut ends) scFv: QSVLTQPASVSGSPGQSITISCTGTSSDVGASNSVSWYQRHPGKPPKLMIYDVSNRPSGISNRFSGSKSGNTASLTISGLQSEDEADYYCSSYTGSSTFVVFGGGTQLIILGGGGSGGGGSGGGGSEVQLVESGGGVVQPGGSLRLSCAASGFTFSSYWMSWVRQAPGKGLEWVANIRQDGSEKYYVDSVKGRFTISRDNAKNSLYLQMNSLRAEDAAVYYCAREQDTAMVAFDYWGQGTLVTVSS | 41 |
| Anti-CLL-1 Binder Clone 4 (scFv, not shown: small tags and cut ends) scFv: QSVVTQPPSVSAAPGQKVTISCSGSSPNIGKNYVSWYQQLPGTAPKLLIYDNNKRPSGIPDRFSGSKSGTSATLGITGLQTGDEADYYCGTWDSSLSGYVFGTGTKVTVLGGGGSGGGGSGGGGSQVQLVESGGGVVQPGRSLRLSCAASGFTFSSYGMHWVRQAPGKGLEWVAFISHDGSNKYYADSVKGRSTISRDNSKSTLFLQMNSLRDEDTAVYFCAREGQLTTSWDFFDYWGHGTLVTVSS | 13 |
| Anti-CLL-1 Binder Clone 10 (scFv, not shown: small tags and cut ends) scFv: DIQMTQSPSFLSASVGDRVTITCRASQGISSYLAWYQQKPGKAPKLLIYSASSLQSGVPSRFSGSGSGTDFTLTISSLQPEDFATYYCQQSYNSPTFGQGTRLEIKGGGGSGGGGSGGGGSQVQLVQSGAEVKKPGASVKVSCKASGYTFTGYYMHWVRQAPGQGLEWMGWMNPNSGNTGYAQKFQGRVTMTRNTSISTAYLELTSLTSDDTAVYYCARGDTGDFFDHWGQGTLVTVSS | 21 |
| Anti-CLL-1 Binder Clone 6 (scFv, not shown: small tags and cut ends) scFv: QSVLTQPPSVSAAPGQKVSIFCSGGSSNIGKNYVSWYQQLPGTAPKLLIYENQHRPSGIPDRFSGSKSGTSATLGITGLQTGDEADYYCATWDDSLSAGVFGGGTELTVLGGGGSGGGGSGGGGSQLVQSGAEVRKPGESLKISCKGSGYSFTSYWIGWVRQMPGKGLEWMGFIYPGDSDTRYSPSFQGQVTISADKSISTAYLQRSSLKASDTAMYYCARLGGYSGYDSEVFYLDYWGQGTTVTVSS | 11 |
| Anti-CLL-1 Binder Clone 41 (scFv, not shown: small tags and cut ends) scFv: QSVLTQPASVSGSLGQSITISCTGTSRDVGGYNFVSWYQQHPGKAPKLIIFDVTTRPSGLSDRFSASKSGNTASLTISGLQAEDEADYFCGSYTASDTMLFGGGTKLTVLGGGGSGGGGSGGGGSQVQLLESGGGVVQPGRSLRLSCAASGFTFDDYAMHWVRQAPGKGLEWVSGISWNSGSIGYADSVKGRFTVSRDNSKNTLYQQMNGLRAEDTAVYYCAREGRPTAFDYWGQGTTVTVSS | 306 |
| Anti-CLL-1 Binder Clone 40 (scFv, not shown: small tags and cut ends) scFv: QSVLTQPPSVSAAPGQKVTISCSGSSSNIGNNYVSWYQQLPGTAPKLLIYDNNKRPSGIPDRFSGSESGTSATLGITGLQTGDEADYYCGTWDSSLSAWVFGGGTQLIILGGGGSGGGGSGGGGSQVQLQQSGPGLVKPSQTLSLTCAISGDSVSSNSAAWNWIRQSPSRGLEWLGRTHYRSKWYNDYAVSVKSRITISADTSKNQFSLQLNSVTPEDTAVYYCARDRYTVRPDAFDIWGQGTTVTVSS | 14 |
